# assay-explanation: Local peak and one-hour trough antibiotic concentration in loculated saliva at the site of the troche (microbiological dilution assay)
# Assay type: in vivo, human
# setup-conditions: human, in vivo, topical or ocular, 50 mg, 50 mg troche; two subjects; read-out: initial peak concentration of oxytetracycline hydrochloride in saliva
Counter-ions that a name gives are not always drawn.
quantity: Cmax (µg/mL)
The answer is to be given in µg/mL; state only the numeric part.

Any idea what Cmax was measured for CN(C)[C@@H]1C(=O)C(C(N)=O)=C(O)[C@@]2(O)C(=O)C3=C(O)c4c(O)cccc4[C@@](C)(O)[C@H]3[C@H](O)[C@@H]12 [oxytetracycline hydrochloride, Oxytetracycline hydrochloride] ?
400000

* * *

# assay-explanation: Local peak and one-hour trough antibiotic concentration in loculated saliva at the site of the troche (microbiological dilution assay)
# Type: in vivo, human
# setup-conditions: human, in vivo, topical or ocular; 50 mg troche; two subjects; read-out: one-hour trough concentration of oxytetracycline hydrochloride in saliva
Counter-ions that a name gives are not always drawn.
quantity: concentration at 1 h (µg/mL)
The answer is to be given in µg/mL; state only the numeric part.

Any idea what concentration at 1 h was measured for CN(C)[C@@H]1C(=O)C(C(N)=O)=C(O)[C@@]2(O)C(=O)C3=C(O)c4c(O)cccc4[C@@](C)(O)[C@H]3[C@H](O)[C@@H]12 [oxytetracycline hydrochloride, Oxytetracycline hydrochloride] ?
8000

* * *

# assay-explanation: Local peak and one-hour trough antibiotic concentration in loculated saliva at the site of the troche (microbiological dilution assay)
# Assay type: in vivo, human
# setup-conditions: human, in vivo, topical or ocular; 50 mg troche; at complete dissolution; read-out: initial peak local concentration of penicillin G in saliva
quantity: Cmax (µg/mL)
The answer is to be given in µg/mL; state only the numeric part.

Any idea what Cmax was measured for CC1(C)S[C@@H]2[C@H](NC(=O)Cc3ccccc3)C(=O)N2[C@H]1C(=O)O ?
500000
